test: activity coefficient (dimensionless); of the first substance listed, at infinite dilution; xn = mol fraction of the nth substance listed; details: 343.15 K; 101.33 kPa; Liquid; Chromatography; x1 = 0
value_type: activity coefficient
One number for each entry.

In the examples that follow, each entry is paired with its recorded activity coefficient.
| compound | data_value |
| --- | --- |
| C1CCCCC1 [cyclohexane] + CCCCCCCCn1cc[n+](C)c1C.F[B-](F)(F)F | 11.9 |
| CC(C)O [propan-2-ol] + CCCCCCCCn1cc[n+](C)c1C.F[B-](F)(F)F | 2.07 |
| C1CCOC1 [tetrahydrofuran] + CCCCCCCCn1cc[n+](C)c1C.F[B-](F)(F)F | 2.13 |

Sample CC(C)CC(C)(C)C [2,2,4-trimethylpentane] + CCCCCCCCn1cc[n+](C)c1C.F[B-](F)(F)F ; activity coefficient observed: 26.9

---

test: activity coefficient (dimensionless); of the first substance listed, at infinite dilution; xn = mol fraction of the nth substance listed; conditions: 323.15 K; 101.33 kPa; Liquid; Chromatography; x1 = 0
value_type: activity coefficient
Answers are plain numbers.

In the examples that follow, each entry is paired with its recorded activity coefficient.
| molecule | activity coefficient |
| --- | --- |
| CCCCO [butan-1-ol] + CCCCCCCCn1cc[n+](C)c1C.F[B-](F)(F)F | 2.64 |
| CCc1ccccc1 [ethylbenzene] + CCCCCCCCn1cc[n+](C)c1C.F[B-](F)(F)F | 4.42 |
| CCCCC [pentane] + CCCCCCCCn1cc[n+](C)c1C.F[B-](F)(F)F | 15.3 |
| Cc1ccccc1C [1,2-dimethylbenzene] + CCCCCCCCn1cc[n+](C)c1C.F[B-](F)(F)F | 3.58 |

Next, consider the following molecule.
Sample CCCCCCCCCC [decane] + CCCCCCCCn1cc[n+](C)c1C.F[B-](F)(F)F ; activity coefficient observed: 54.2

---

experiment: activity coefficient (dimensionless); of the first substance listed, at infinite dilution; xn = mol fraction of the nth substance listed; settings: 313.15 K; 101.33 kPa; Liquid; Chromatography; x1 = 0
value_type: activity coefficient
Answers are plain numbers.

In the examples that follow, each entry is paired with its recorded activity coefficient.
| compound | activity coefficient |
| --- | --- |
| CC1CCCCC1 [methylcyclohexane] + CCCCCCCCn1cc[n+](C)c1C.F[B-](F)(F)F | 15.8 |
| CCCO [propan-1-ol] + CCCCCCCCn1cc[n+](C)c1C.F[B-](F)(F)F | 2.56 |
| CCC(C)O (centres undefined) [butan-2-ol] + CCCCCCCCn1cc[n+](C)c1C.F[B-](F)(F)F | 2.93 |
| C1CCCCC1 [cyclohexane] + CCCCCCCCn1cc[n+](C)c1C.F[B-](F)(F)F | 12.8 |
| CC(C)O [propan-2-ol] + CCCCCCCCn1cc[n+](C)c1C.F[B-](F)(F)F | 2.5 |
| CC#N [acetonitrile] + CCCCCCCCn1cc[n+](C)c1C.F[B-](F)(F)F | 1.01 |
| Cc1ccc(C)cc1 [1,4-dimethylbenzene] + CCCCCCCCn1cc[n+](C)c1C.F[B-](F)(F)F | 4.06 |
| CCCCCCCC [octane] + CCCCCCCCn1cc[n+](C)c1C.F[B-](F)(F)F | 33 |

Sample ClCCl [dichloromethane] + CCCCCCCCn1cc[n+](C)c1C.F[B-](F)(F)F ; activity coefficient observed: 1.08
